Quick list: Emax per entry.
# target.desc: WT PTH1R (Homo sapiens, UniProt Q03431)
# Construct: a flag-tag was fused to the N terminal of full-length PTH1R (WT or mutant); expressed in transfected cells; host or cells: HEK293T
# Sequence (Q03431 27-593): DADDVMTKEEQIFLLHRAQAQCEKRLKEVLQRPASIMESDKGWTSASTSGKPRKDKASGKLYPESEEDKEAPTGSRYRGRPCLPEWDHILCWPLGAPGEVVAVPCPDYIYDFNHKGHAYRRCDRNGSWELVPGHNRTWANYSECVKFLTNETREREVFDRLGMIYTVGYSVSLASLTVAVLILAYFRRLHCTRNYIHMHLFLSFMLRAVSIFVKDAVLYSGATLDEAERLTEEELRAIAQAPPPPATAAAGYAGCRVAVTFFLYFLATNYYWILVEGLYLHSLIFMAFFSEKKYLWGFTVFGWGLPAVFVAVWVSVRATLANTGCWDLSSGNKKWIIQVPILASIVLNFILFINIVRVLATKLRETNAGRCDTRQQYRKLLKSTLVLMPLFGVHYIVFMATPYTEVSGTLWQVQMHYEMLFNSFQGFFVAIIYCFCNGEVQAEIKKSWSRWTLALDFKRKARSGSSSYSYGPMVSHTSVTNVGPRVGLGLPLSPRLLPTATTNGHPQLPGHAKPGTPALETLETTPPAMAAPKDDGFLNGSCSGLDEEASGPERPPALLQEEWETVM
# method.notes: cAMP accumulation assay (GloSensor), wild-type PTH1R
# Assay type: cell-based
# settings: HEK293T cells; from curve fitting dose-response data
No end group written: not given here.
recorded.endpoint: Emax

>>> readout_value("AVAEHQLMHQRAKWIQDLRRRFFLHHLIAEIHTAEI-NH2 [LAPTH(1-14,I5H)/PTHrP(15-34)]")
"142.8 luminescence counts per 500ms"
>>> readout_value("AVAEIQLLMHQRAKSIQDARRRAFLHKLIAEIHTAEI [LAPTH(W14H)]")
"107.5 luminescence counts per 500ms"
>>> readout_value("AVAEHQLMHQLAKWIQDARRRAFLHKLIAEIHTAEI [LAPTH(I5H;R11L)]")
"106.9 luminescence counts per 500ms"
>>> readout_value("H-SVSEIQLMHNLGKHLNSMERVEWLRKKLQDVHNF-OH [PTH, Teriparatide, human PTH 1-34, long-acting peptide agonist of PTH1R]")
"103.1 luminescence counts per 500ms"
>>> readout_value("AVAEHQLMHNRAKWIQDARRRAFLHKLIAEIHTAEI [LAPTH(I5H;Q10N)]")
"117.7 luminescence counts per 500ms"
>>> readout_value("AVAEHQLMHQRGKWIQDARRRAFLHKLIAEIHTAEI [LAPTH(I5H;A12G)]")
"129.5 luminescence counts per 500ms"
>>> readout_value("SVSEHQLMHNLGKHIQDARRRAFLHKLIAEIHTAEI [LA-PTH (I5H-PTH;NT)]")
"102.1 luminescence counts per 500ms"
>>> readout_value("AVSEHQLMHQRAKWIQDARRRAFLHKLIAEIHTAEI [LAPTH(I5H;A3S)]")
"125.3 luminescence counts per 500ms"
>>> readout_value("AVAEHQLMHQRAKWLNSMERVEWLRKKLQDVHNF [LAPTH(1-14,I5H)/PTH(15-34)]")
"129.6 luminescence counts per 500ms"
>>> readout_value("AVAEHQLMHQRAKHIQDARRRAFLHKLIAEIHTAEI [LAPTH(I5H;W14H)]")
"117.8 luminescence counts per 500ms"
>>> readout_value("SVAEHQLMHQRAKWIQDARRRAFLHKLIAEIHTAEI [LAPTH(I5H;A1S)]")
"119.8 luminescence counts per 500ms"

====

# target.desc: WT PTH1R (Homo sapiens, UniProt Q03431)
# Construct: a flag-tag was fused to the N terminal of full-length PTH1R (WT or mutant); expressed in transfected cells; host or cells: HEK293T
# method.notes: cAMP accumulation assay (GloSensor), wild-type PTH1R
# Type: cell-based
# settings: HEK293T cells; half-maximal stimulatory concentration from curve fitting dose-response data
No end group written: not given here.
recorded.endpoint: EC50 (nM)

>>> readout_value("AVAEIQLLHQRAKWIQDARRRAFLHKLIAEIHTAEI [LAPTH(M8L)]")
3.45
>>> readout_value("AVAEHQLMHQRAKWIQDARRRAFLHKLIAEIHTAEI [LAPTH(I5H)]")
0.183
>>> readout_value("AVSEHQLMHQRAKWIQDARRRAFLHKLIAEIHTAEI [LAPTH(I5H;A3S)]")
0.39
>>> readout_value("AVAEHQLMHQRGKWIQDARRRAFLHKLIAEIHTAEI [LAPTH(I5H;A12G)]")
2.08
>>> readout_value("AVAEHQLMHQRAKWIQDLRRRFFLHHLIAEIHTAEI-NH2 [LAPTH(1-14,I5H)/PTHrP(15-34)]")
1.76
>>> readout_value("AVAEHQLMHQLAKWIQDARRRAFLHKLIAEIHTAEI [LAPTH(I5H;R11L)]")
2.08
